Method Notes: Inhibition of soil urease assessed as urea-N level at 1% compound level measured after 9 hr
Condition Set: concentration not given here
Items are presented alongside their recorded inhibition.
Measurement Type: inhibition

CC1(C)CC(=S)C2=C(C1)Oc1ccc3ccccc3c1C2c1cccs1 (centres undefined) :: 4%
S=C1CCCC2=C1C(c1ccccc1Br)c1c(ccc3ccccc13)O2 (centres undefined) :: 1%
COc1cc(C2C3=C(CC(C)(C)CC3=S)Oc3ccc4ccccc4c32)ccc1O (centres undefined) :: -6%
CC1(C)CC(=S)C2=C(C1)Oc1ccc3ccccc3c1C2c1ccc(Cl)cc1 (centres undefined) :: 35%
CC1(C)CC(=S)C2=C(C1)Oc1ccc3ccccc3c1C2c1ccccc1 (centres undefined) :: 5%
CC1(C)CC(=S)C2=C(C1)Oc1ccc3ccccc3c1C2c1ccc(F)cc1 (centres undefined) :: -3%
CC1(C)CC(=S)C2=C(C1)Oc1ccc3ccccc3c1C2c1cccc(Br)c1 (centres undefined) :: 15%
COc1ccccc1C1C2=C(CC(C)(C)CC2=S)Oc2ccc3ccccc3c21 (centres undefined) :: 24%
S=C1CCCC2=C1C(c1ccccc1)c1c(ccc3ccccc13)O2 (centres undefined) :: 47%
Cc1ccc(C2C3=C(CC(C)(C)CC3=S)Oc3ccc4ccccc4c32)cc1 (centres undefined) :: 33%
COc1ccc(C2C3=C(CC(C)(C)CC3=S)Oc3ccc4ccccc4c32)cc1 (centres undefined) :: 5%
S=C1CCCC2=C1C(c1cccc(Cl)c1)c1c(ccc3ccccc13)O2 (centres undefined) :: 6%
O=[N+]([O-])c1ccc(C2C3=C(CCCC3=S)Oc3ccc4ccccc4c32)cc1 (centres undefined) :: 1%
CC1(C)CC(=S)C2=C(C1)Oc1ccc3ccccc3c1C2c1ccc2ccccc2c1 (centres undefined) :: 1%
